Test system: Human immunodeficiency virus 1
Assay: MMV: HIV CXCR4-tropic env NL4-3 pseudovirus assay produces luciferase signal in lieu of replicating viral particles Day 3 pi, U87-CD4-CXCR4, % inhibition at 5 mM compound
Type: functional
Design: dose or concentration left out as unconfirmed
Details: Human immunodeficiency virus 1, NL4-3, U87.CD4.CXCR4, 72 h
measured attribute: inhibition (%)

> print(dat)
                                    compound  measured.attribute  reading
 1     CCOc1ccc(Nc2c3ccccc3nc3ccccc23)cc1.Cl          inhibition        2
 2    O=C(Nc1ccsc1C(=O)NC1CCCCC1)c1ccc(F)cc1          inhibition        3
 3  CC(C)(C)CC(C)(C)NCC(O)COc1ccc2c(c1)CCC2.Cl (stereo unspecified)          inhibition       -1
 4  CCN(CC)CCn1c(=N)n(CC(O)c2ccc(Cl)c(Cl)c2)c2ccccc21.Cl (stereo unspecified)          inhibition       10
 5  CCC(c1ccccc1)c1nn2c(-c3cccs3)nnc2s1 (stereo unspecified)          inhibition        9
 6      COc1ccc2nc(C)cc(Nc3cccc(O)c3)c2c1.Cl          inhibition        7
 7           O=C(Nc1ccc(Br)cc1)Nc1cccc(Cl)c1          inhibition        9
 8  CCN(CC)c1cc(C)c2cc(NC(=O)c3cccc(OC)c3)ccc2n1          inhibition        7
 9  Cc1ccnc(NC(c2cccc(OCc3ccccc3)c2)c2ccc3cccnc3c2O)c1 (stereo unspecified)          inhibition        1
10  COc1cccc(NC(=O)[C@H](C(C)C)n2c(=O)[nH]c3ccccc3c2=O)c1          inhibition        0
11       Cn1c(C(=O)c2cccc3ccccc23)nc2ccccc21          inhibition        9

====

Experiment: MMV: MTT Cytotoxicity Assay Day 7 pi of Assay #11 (NO washout), U87-CD4-CXCR4 cells, % cell death @ 5mM compound
Format: toxicity, cell-based
Conditions: human, u87-cd4-cxcr4, 5000 µM
measured attribute: % Cell Death

> print(dat)
                                    molecule  reading
 1  COc1ccc2c(c1)C1(Nc3ccccc3-c3nc4ccccc4n31)C(=O)N2 (configuration not stated)        9
 2  CCN(CC)CCNc1ccnc2cc3ccccc3cc12.O=P(O)(O)O      -36
 3  COc1ccc(N2CCN(C(CNC(=O)C3CCCCC3)c3ccc4c(c3)OCO4)CC2)cc1 (configuration not stated)       71
 4  CCOc1cccc(C(=O)Nc2ccc(-c3nc4ccccc4[nH]3)cc2)c1       65
 5  COc1ccc(C2=C(c3ccc(OC)cc3)C3(c4ccccc4)C(=O)C2(c2ccccc2)C2C(=O)N(c4ccc(C)cc4)C(=O)C23)cc1 (configuration not stated)       -6
 6           Oc1ccc(Cl)cc1CNc1nc2ccccc2[nH]1       24
 7   O=C(Nc1ccccc1O)c1ccc(-c2ccc(Cl)cc2Cl)o1       64
 8  COc1cc2c3cc1Oc1c(OC)c(OC)cc4c1C(Cc1ccc(O)c(c1)Oc1ccc(cc1)CC3N(C)CC2)N(C)CC4.Cl (configuration not stated)       83
 9  COc1ccc(CCN2C(=O)c3[nH]nc(-c4cc(Cl)c(C)cc4O)c3C2c2ccccc2F)cc1 (configuration not stated)      -26
10                    C=CCc1c(C)nc2ccccc2c1O       50
11  Cc1cc(N2CCN(C3CCCC3)CC2)n2c(nc3ccccc32)c1C#N       -3
12  CCOc1cc2c(cc1OCC)C(c1cc(OC)c(O)cc1Cl)NCC2 (configuration not stated)       20
13  O=C(CCc1ccccc1)c1ccccc1OCC(O)CN1CCCCC1 (configuration not stated)       93
14  CCN(CC)c1cc(C)c2cc(NC(=O)c3cccc(OC)c3)ccc2n1       -2
15  COc1ccc(-c2nc(N3CCN(C(=O)C4CCCCC4)CC3)c3c4c(sc3n2)CCCC4)cc1      104
16  COc1cc(-c2nc(-c3ccccc3)c(-c3ccccc3)[nH]2)cc(OC)c1O      105
17  CCOC(=O)C1CCN(C(=O)CN2C(=O)c3ccccc3C2c2c[nH]c3ccccc23)CC1 (configuration not stated)      112
18           CC(C)(C)c1ccc(O)c(CNC2CCCCC2)c1      101
19  CCOC(=O)C1=CN(C)C=C(C(=O)OCC)C1c1cc(Br)c(OCC)c(OC)c1        6
20  COc1ccc(-c2cc3c(SCC(=O)Nc4cc(C(F)(F)F)ccc4Cl)nccn3n2)cc1       13
21   CN(N=O)C1=C(NC2CCCCC2)C(=O)c2ccccc2C1=O       15
22  O=C(Nc1ccc(CN2CCOCC2)cc1)c1ccc(-c2cc(Cl)ccc2Cl)o1       36
23  COC(=O)c1ccc(C2C3=C(O)CC(c4ccc(F)cc4)CC3=Nc3ccccc3N2C(=O)c2ccccc2)cc1 (configuration not stated)      -29
24  COc1cc(OC)cc(N2C(=O)N(Cc3ccc(C(C)(C)C)cc3)c3ccccc3S2(=O)=O)c1       64
25  CCN1CCN(c2c(C(=O)c3ccccc3)cnc3cc(OC)c(OC)cc23)CC1       99
26  CCN1CCN(Cc2ccc(NC(=O)c3cc4ccc5cccnc5c4[nH]3)cc2)CC1       26
27  O=C(Nc1ccc(Cl)cc1C(=O)Nc1ccncc1)c1ccc(Cl)cc1Cl       87
28   CC(C)(C)c1ccc2c(c1)CN(Cc1ccc(Cl)cc1)CO2      -36
29  CC1CN(C(=O)c2sc3ccccc3c2Cl)CC(C)O1 (configuration not stated)      105
30       CCCc1cc(O)c2c3c(c(=O)oc2c1)CN(C)CC3       40
31  CC(C)c1ccc(CNCC(O)c2ccccc2)cc1.Cl (configuration not stated)        3
32  O=C(Nc1ccc(-c2nc3ccccc3[nH]2)cc1)c1ccc(Cl)c(Cl)c1      -46
33  O=C(Nc1ccccc1O)c1ccc(Oc2cccc(C(=O)Nc3ccccc3O)c2)cc1      -20
34  C=CC12CCN(CC1)C(C(O)c1ccnc3ccc(OC)cc13)C2.Cl (configuration not stated)      -24
35           Cc1cc(Nc2ccc3ccccc3c2)n2ncnc2n1      -43
36            CCOc1ccc(C2N(C)c3ccccc3N2C)cc1      100
37  CC(Oc1ccc(NC(=O)c2cccs2)cc1)C(=O)c1ccc(Cl)cc1 (configuration not stated)       -5
38     OCCNc1nc(Nc2ccc(Cl)c(Cl)c2)nc2ccccc12      -59
39    O=C(Nc1ccsc1C(=O)NC1CCCCC1)c1ccc(F)cc1      -14
40         Oc1ccc(C(=C(Cl)Cl)c2ccc(O)cc2)cc1      103
41  O=C(NC1CCN(Cc2ccccc2)CC1)c1cc2nc(-c3ccc(Cl)s3)cc(C(F)(F)F)n2n1       11
42  CCOC(=O)C1=C(C)N=c2sc(=Cc3cc(Cl)ccc3O)c(=O)n2C1c1ccc(OC)cc1 (configuration not stated)      -46
